# Test system: Hepatitis B virus
# assay: Antiviral activity against HBV infected in human HepG2(2.2.15) cells assessed as inhibition of viral replication after 9 days by fluorescence PCR method
# Format: functional, organism-based
# setupConditions: HepG2 2.2.15, 216 h
measurementName: IC50

{"columns": ["chemicalStructure", "testSystem", "measurement"],
 "data": [
  ["CCOc1ccc(NC(=O)/C=C/c2coc3cc(OC)ccc3c2=O)cc1", "Hepatitis B virus", "> 100 µM"],
  ["COc1ccc2c(=O)c(/C=C/C(=O)NCCc3ccccc3F)coc2c1", "Hepatitis B virus", "> 100 µM"],
  ["O=C(/C=C/c1coc2cc(O)ccc2c1=O)NCCc1ccc(F)cc1", "Hepatitis B virus", "> 100 µM"]
]}

Ref: ChEMBL document CHEMBL2331205
